Assay: in vitro
Settings: human, hela cells, % viability
EXPERIMENTAL_READOUT: viability at 28.5 h, 10 µM (%)
Use % as the unit, but write only the number.

SMILES_REPR: Cc1ccccc1-n1ncc2c(=O)n(Cc3ccccc3)cnc21
viability at 28.5 h, 10 µM / %: 96.9
//
SMILES_REPR: Nc1cc2cccnc2c(-c2ccc3c(c2)CCO3)n1
viability at 28.5 h, 10 µM / %: 98
//
SMILES_REPR: O=[N+]([O-])c1ccc(S(=O)(=O)N2CCC3(CC2)OCCO3)cc1
viability at 28.5 h, 10 µM / %: 97.5
//
SMILES_REPR: C(=C\c1ccccc1)/CN1CCN(CCCc2ccccc2)CC1
viability at 28.5 h, 10 µM / %: 90

# next compound below
Find the recorded viability at 28.5 h, 10 µM belonging to COc1ccc(N2CCN(c3cc(-c4cccc5ccccc45)ncn3)CC2)cc1OC and report it. 43.4

----------
Measured viability at 28.5 h, 10 µM, listed per entry.
Experiment: in vitro
Details: human, hela cells, % viability
Use % as the unit, but write only the number.

Consider the reported viability at 28.5 h, 10 µM for these compounds:
COMPOUND: O=C(O)c1ccccc1OCCCCOc1cccc2cccnc12
viability at 28.5 h, 10 µM [%]: 87.2
--
COMPOUND: Nc1nc(=O)n([C@H]2C[C@@H](O)[C@@H](CO)O2)cc1Br
viability at 28.5 h, 10 µM [%]: 97.1

# next compound below
Find the recorded viability at 28.5 h, 10 µM belonging to COc1ccc(S(=O)(=O)Nc2ccccc2C(=O)O)cc1C(=O)O and report it. 99.9

----------
Tested on: CTL2-GFP (C. trachomatis L2/434/Bu, GFP-expressing)
Construct: L2/434/Bu, GFP-expressing
Assay: microbe, parasite or virus in culture
Parameters: Intracellular C. trachomatis growth in HeLa cells, bulk GFP fluorescence relative to DMSO
Settings: Chlamydia trachomatis, HeLa, 28.5 h; bulk GFP, mean of 2; read-out: % of control remaining
EXPERIMENTAL_READOUT: activity at 1 µM (%)
Use % as the unit, but write only the number.

Consider the reported activity at 1 µM for these molecules:
MOLECULE: Fc1cccc(F)c1OCCOc1nc(N2CCNCC2)ccc1C(F)(F)F [CBK003977A]
EXPERIMENTAL_SYSTEM: CTL2-GFP (C. trachomatis L2/434/Bu, GFP-expressing)
activity at 1 µM, %: 86.2
//
MOLECULE: CN(C)[C@H]1CCC[C@@H]1C(=O)Nc1ccc(Cl)c(Cl)c1 [CBK003406]
EXPERIMENTAL_SYSTEM: CTL2-GFP (C. trachomatis L2/434/Bu, GFP-expressing)
activity at 1 µM, %: 90.9
//
MOLECULE: C/C(Nc1ccc(S(=O)(=O)Nc2nccc(C)n2)cc1)=C1\C(=O)N(c2nc3ccccc3s2)N=C1C(F)(F)F [CBK263002]
EXPERIMENTAL_SYSTEM: CTL2-GFP (C. trachomatis L2/434/Bu, GFP-expressing)
activity at 1 µM, %: 31.6

Find the recorded activity at 1 µM belonging to COc1ccc(C(C)C)cc1-c1cn2ccnc2c(N2CCN(c3ccncc3)CC2)n1 [CBK066217] and report it. 91.5

Find the recorded activity at 1 µM belonging to COc1cccc(CNC(C(=O)O)c2ccc3c(c2)OCO3)c1 (stereo not drawn) [CBK015420D] and report it. 107

Find the recorded activity at 1 µM belonging to O=C(NCCc1c[nH]c2ccc(Cl)cc12)c1c(F)ccc(Cl)c1F [CBK159756] and report it. 103
